Reference source for all entries: patent EP4582447A1

# target-of-assay: T1, Human VEGFA165 (human, UniProt P15692-4 27-191)
# T1 construct: treated as the same molecule; also called antigen VEGFA
# T1 sequence (P15692 other isoform, or with tags, fused parts or gaps limits assumed): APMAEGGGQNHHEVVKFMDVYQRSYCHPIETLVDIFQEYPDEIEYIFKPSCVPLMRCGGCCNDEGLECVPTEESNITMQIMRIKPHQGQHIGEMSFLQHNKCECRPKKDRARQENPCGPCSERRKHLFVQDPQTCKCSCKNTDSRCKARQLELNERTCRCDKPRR
# experiment: ELISA, VEGFA coated 0.3 µg/mL, anti-His detection
recorded-metric: EC50 (nM)

>>> test_value("V1 (VHH, also called candidate antibody V1; antibody V1) VHH: QLQLVESGGGSVQPGGSLRLSCEVSGRTFSSYTMGWFRQAPGKEREFVVAISKGGYKYDSVSLEARFTISKDNTKNTVYLQMNSLKPEDTAVYYCAATRAYGSSRLRLADTYEYWGQGTQVTVSS")
0.53
>>> test_value("V31 (VHH, Purified with C-terminal GGGGS-6×His) VHH: QLQLVESGGGSVQPGGSLRLSCEVSGRTFASYTMGWFRQAPGKEREFVVAISKGGYKYDAVSLEARFTISKDNTKNTVYLQMNSLKPEDTAVYYCAGTRAYGSSRLRLAKTYEYWGQGTQVTVSS")
0.67
